target: D2 receptor (Rattus norvegicus); construct: 15μg/mL of striatal homogenate was incubated in triplicate; from tissue; host or cells: rat striatum homogenate; test: Functional D2 receptor [35S]GTPγS assay (antagonist mode vs dopamine; basal for agonism); assay type: biochemical; details: against 40 µM dopamine, rat striatal homogenate; read-out: D2 receptor antagonistic activity IC50 (95% CI);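 also: [35S]GTPγS binding counted by scintillation after 60 min at 30 °C, nonspecific binding defined with 100 µM unlabeled GTPγS, inhibition curves fitted by one-site nonlinear regression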
Sequence (P61169 whole entry): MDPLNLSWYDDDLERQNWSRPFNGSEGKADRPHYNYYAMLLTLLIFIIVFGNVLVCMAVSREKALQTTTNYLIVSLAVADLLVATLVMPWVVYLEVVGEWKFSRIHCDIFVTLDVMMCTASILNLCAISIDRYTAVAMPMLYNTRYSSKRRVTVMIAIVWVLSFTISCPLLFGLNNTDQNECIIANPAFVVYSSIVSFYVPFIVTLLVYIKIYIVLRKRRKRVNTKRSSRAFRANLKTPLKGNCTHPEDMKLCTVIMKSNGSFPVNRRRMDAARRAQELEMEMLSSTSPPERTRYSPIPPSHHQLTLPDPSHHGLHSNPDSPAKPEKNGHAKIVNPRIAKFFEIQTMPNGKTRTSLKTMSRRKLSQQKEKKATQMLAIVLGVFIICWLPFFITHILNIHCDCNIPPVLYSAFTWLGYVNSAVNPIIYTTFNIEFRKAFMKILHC
readout-type: IC50 (µM)
Answers are plain numbers, in µM.

Use these answered entries as a reference point.
> print(dat)
                                   compound  readout.type  value.measured
1  O=C(NCCCN1CCN(c2ccccc2F)CC1)C1CC2C=CC1C2 (centres unmarked) [Norbo-15]          IC50            62.7
2  O=C(NCCCN1CCN(c2cccc(C(F)(F)F)c2)CC1)C1CC2C=CC1C2 (centres unmarked) [Norbo-19]          IC50             144
3  O=C(NCCCN1CCN(c2ccccn2)CC1)C1CC2C=CC1C2 (centres unmarked) [Norbo-22]          IC50             125
4  O=C(NCCCN1CCN(c2ccc(Cl)c(Cl)c2)CC1)C1CC2C=CC1C2 (centres unmarked) [Norbo-13]          IC50            68.9

Okay, now this compound:
Problem: GET /values?readout=IC50&item= O=C(NCCCN1CCN(c2ccccc2F)CC1)C1CC2C=CC1C2 (centres unmarked) [Norbo-16]
Result: 41.5
